- experiment-description: Pharmacokinetic parameters for different drugs following single oral or intravenous administration in healthy subjects.
- experimental-setup: human, in vivo, iv, 100 mg
experimental-endpoint: clearance

| smiles-data | result |
| --- | --- |
| NC[C@H]1O[C@H](O[C@H]2[C@H](O)[C@@H](O[C@H]3O[C@H](CO)[C@@H](O)[C@H](N)[C@H]3O)[C@H](N)C[C@@H]2N)[C@H](N)C[C@@H]1O | 0.98 mL/min/kg |

* * *

- experiment-description: Pharmacokinetic parameters for different drugs following multiple oral or intravenous administration in healthy subjects.
- Type: ADME, organism-based
- Set-up: dose 200 mg/day, route oral
- experimental-setup: human, in vivo, po, 200 mg/day; dosed compound id 68, dosed compound name IMIPRAMINE HYDROCHLORIDE, regimen Repeated dose, study dosing duration 4 weeks, tissue Plasma

| compound | unit-info | Cmax |
| --- | --- | --- |
| CN(C)CCCN1c2ccccc2CCc2ccccc21.Cl [IMIPRAMINE HYDROCHLORIDE] | ng/mL | 200 |

* * *

- experiment-description: Pharmacokinetic parameters for different drugs following single oral or intravenous administration in healthy subjects.
- experimental-setup: human, in vivo, iv, 100 mg

| compound | bioavailability (%) |
| --- | --- |
| CN(C)CCCN1c2ccccc2CCc2ccccc21.Cl [IMIPRAMINE HYDROCHLORIDE] | 42 |

* * *

- experiment-description: Pharmacokinetic parameters for different drugs following single oral or intravenous administration in healthy subjects.
- experimental-setup: human, in vivo, iv, 100 mg

| molecule | half-life / h |
| --- | --- |
| CN(C)CCCN1c2ccccc2CCc2ccccc21.Cl [IMIPRAMINE HYDROCHLORIDE] | 16 |
| NC[C@H]1O[C@H](O[C@H]2[C@H](O)[C@@H](O[C@H]3O[C@H](CO)[C@@H](O)[C@H](N)[C@H]3O)[C@H](N)C[C@@H]2N)[C@H](N)C[C@@H]1O | 2.2 |

* * *

Recorded Vd for the following compounds
- experiment-description: Pharmacokinetic parameters for different drugs following single oral or intravenous administration in healthy subjects.
- experimental-setup: human, in vivo, iv, 100 mg

| compound | Vd |
| --- | --- |
| NC[C@H]1O[C@H](O[C@H]2[C@H](O)[C@@H](O[C@H]3O[C@H](CO)[C@@H](O)[C@H](N)[C@H]3O)[C@H](N)C[C@@H]2N)[C@H](N)C[C@@H]1O | 0.33 L/kg |
| CN(C)CCCN1c2ccccc2CCc2ccccc21.Cl [IMIPRAMINE HYDROCHLORIDE] | 18 L/kg |
